- Tested on: normal male SD rats
- assayText: Plasma Ca^2+ level of rats after single oral administration
- Assay type: in vivo
- setupConditions: rat, mean of six animals, 2 hr after single oral dose 30 μmol/kg; vehicle 10% cyclodextrin (** 1% sodium-CMC)
assayReadout: Plasma Ca^2+ (mmol/l) 2 hr (mmol/L)

{"compound": "C[C@@H](NCCCCCSc1ccc(Cl)cc1)c1cccc2ccccc12", "assayReadout": "Plasma Ca^2+ (mmol/l) 2 hr", "observed": 1.102}
{"compound": "C[C@@H](NCCCCCCCSc1c(F)c(F)c(C(F)(F)F)c(F)c1F)c1cccc2ccccc12", "assayReadout": "Plasma Ca^2+ (mmol/l) 2 hr", "observed": 1.252}
{"compound": "C[C@@H](NCCC(=O)N(Cc1ccc(Cl)cc1)Cc1ccc2ccccc2c1)c1cccc2ccccc12", "assayReadout": "Plasma Ca^2+ (mmol/l) 2 hr", "observed": 1.247}
{"compound": "C[C@@H](NCCCCCSc1ccc(OC(F)(F)F)cc1)c1cccc2ccccc12", "assayReadout": "Plasma Ca^2+ (mmol/l) 2 hr", "observed": 1.057}
{"compound": "C[C@@H](NCCCCCCSc1ccc(OC(F)(F)F)cc1)c1cccc2ccccc12", "assayReadout": "Plasma Ca^2+ (mmol/l) 2 hr", "observed": 1.165}
{"compound": "COc1ccc(CN(Cc2ccc(OC(F)(F)F)cc2)C(=O)CCN[C@H](C)c2cccc3ccccc23)cc1", "assayReadout": "Plasma Ca^2+ (mmol/l) 2 hr", "observed": 1.232}
{"compound": "C[C@@H](NCCC(=O)N(Cc1ccccc1)Cc1ccc(Cl)cc1)c1cccc2ccccc12", "assayReadout": "Plasma Ca^2+ (mmol/l) 2 hr", "observed": 1.298}
{"compound": "Cc1ccc(SC(C)CCCN[C@H](C)c2cccc3ccccc23)c(C)c1 (some centres unmarked)", "assayReadout": "Plasma Ca^2+ (mmol/l) 2 hr", "observed": 1.165}

###

- testSystem: human calcium receptor (Homo sapiens, UniProt P41180)
- Sequence (P41180 20-1078): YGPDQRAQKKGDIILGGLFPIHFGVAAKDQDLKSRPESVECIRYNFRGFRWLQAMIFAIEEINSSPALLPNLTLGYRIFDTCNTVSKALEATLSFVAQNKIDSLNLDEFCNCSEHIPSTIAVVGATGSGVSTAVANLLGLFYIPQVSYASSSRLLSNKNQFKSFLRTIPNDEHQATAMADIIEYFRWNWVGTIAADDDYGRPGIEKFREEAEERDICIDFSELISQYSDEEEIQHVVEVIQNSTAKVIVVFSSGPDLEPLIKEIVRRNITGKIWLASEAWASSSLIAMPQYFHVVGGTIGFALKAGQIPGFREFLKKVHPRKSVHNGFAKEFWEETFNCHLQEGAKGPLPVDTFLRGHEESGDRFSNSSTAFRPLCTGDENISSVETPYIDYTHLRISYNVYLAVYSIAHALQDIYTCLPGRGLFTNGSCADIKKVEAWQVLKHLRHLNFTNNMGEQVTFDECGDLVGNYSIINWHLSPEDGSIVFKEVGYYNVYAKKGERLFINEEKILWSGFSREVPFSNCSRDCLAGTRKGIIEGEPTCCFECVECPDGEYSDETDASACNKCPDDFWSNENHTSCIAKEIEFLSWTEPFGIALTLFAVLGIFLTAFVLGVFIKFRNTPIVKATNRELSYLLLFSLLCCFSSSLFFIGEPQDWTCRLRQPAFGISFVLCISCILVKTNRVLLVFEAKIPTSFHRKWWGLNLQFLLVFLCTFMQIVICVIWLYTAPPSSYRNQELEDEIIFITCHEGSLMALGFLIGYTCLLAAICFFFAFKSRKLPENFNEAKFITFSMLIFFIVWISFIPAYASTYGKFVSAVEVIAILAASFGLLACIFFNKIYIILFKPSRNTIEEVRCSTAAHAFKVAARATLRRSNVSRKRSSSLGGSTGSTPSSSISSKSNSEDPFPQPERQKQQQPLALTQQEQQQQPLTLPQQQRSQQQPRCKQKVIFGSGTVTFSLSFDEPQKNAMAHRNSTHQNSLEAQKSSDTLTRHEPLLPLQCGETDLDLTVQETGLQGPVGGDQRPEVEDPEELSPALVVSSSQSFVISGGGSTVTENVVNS
- assayText: Activity on calcium receptors: fluo-3 fluorescence in HEK293 cells transfected with human calcium receptor gene
- setupConditions: HEK293 cells transfected with plasmid pHuPCaR4.0 (human calcium receptor gene), loaded with fluo-3; 1 mM CaCl2, 1 mM MgCl2
pEC50: −log10 of the molar value.
Collected pEC50 values appear next to each entry.

{"compound": "COc1cccc(C(C)NCCCOc2ccc(Cl)cc2)c1 (stereo not drawn)", "pEC50": 6.19}
{"compound": "C[C@@H](NCCCCSc1ccc(F)cc1)c1cccc2ccccc12", "pEC50": 6.96}
{"compound": "Cc1ccc(CN(Cc2ccc(Cl)c(Cl)c2)C(=O)CCN[C@H](C)c2cccc3ccccc23)cc1", "pEC50": 7.21}
{"compound": "CC(NCCC(=O)N(Cc1ccccc1)Cc1ccccc1Cl)c1cccc2ccccc12 (stereo not drawn)", "pEC50": 7.09}
{"compound": "COc1cccc(C(C)NCCCCCCSc2cccc(C(F)(F)F)c2)c1 (stereo not drawn)", "pEC50": 6.06}
{"compound": "C[C@@H](NCCCCCSc1ccc(F)cc1)c1cccc2ccccc12", "pEC50": 5.24}
{"compound": "Cc1cc(C)cc(SCCNC(C)c2cccc3ccccc23)c1 (stereo not drawn)", "pEC50": 7.01}
{"compound": "COc1cccc([C@@H](C)NCCCCCCSc2nc3ccccc3s2)c1", "pEC50": 5.29}
{"compound": "COc1cccc(C(C)NCCCCSc2ccc(C(F)(F)F)cc2)c1 (stereo not drawn)", "pEC50": 7.41}

Data provenance: patent US7816408B2
